Numbers sourced from patent US6737383B1.

test system: rape; assay: Test B pre/postemergence rape; format: in vivo, Brassica napus; settings: Preemergence, Rate 250 g/ha; scale of 0 to 10 where 0 is no effect and 10 is complete control
experimental.endpoint: Plant response rating, Rape
The answer should be a number; do not append a unit.

Consider the following illustrative entries.
| compound | Plant response rating, Rape |
| --- | --- |
| CC(C)N(C(=O)n1oc(=O)n(-c2ccccc2Cl)c1=O)c1ccc(F)cc1 [Compound 8] | 0 |
| CCc1noc(C)c1-n1c(=O)on(C(=O)N(c2ccc(F)cc2)C(C)C)c1=O [Compound 101] | 0 |
| Cc1nn(C)c(Cl)c1-n1c(=O)on(C(=O)N(c2ccc(F)cc2)C(C)C)c1=O [Compound 95] | 3 |

[ask] # return recorded Plant response rating, Rape for input CC(C)N(C(=O)n1oc(=O)n(-c2cnn(C)c2)c1=O)c1ccc(F)cc1 [Compound 98]
[reply] 0
